The reported measurements were obtained from patent US20250136595A1.

Target: phosphorylated EGFR (pEGFR) (Homo sapiens)
Construct: performed to measure phosphorylated EGFR levels using A431 cells; endogenous in cells
Sequence (P00533 25-1210): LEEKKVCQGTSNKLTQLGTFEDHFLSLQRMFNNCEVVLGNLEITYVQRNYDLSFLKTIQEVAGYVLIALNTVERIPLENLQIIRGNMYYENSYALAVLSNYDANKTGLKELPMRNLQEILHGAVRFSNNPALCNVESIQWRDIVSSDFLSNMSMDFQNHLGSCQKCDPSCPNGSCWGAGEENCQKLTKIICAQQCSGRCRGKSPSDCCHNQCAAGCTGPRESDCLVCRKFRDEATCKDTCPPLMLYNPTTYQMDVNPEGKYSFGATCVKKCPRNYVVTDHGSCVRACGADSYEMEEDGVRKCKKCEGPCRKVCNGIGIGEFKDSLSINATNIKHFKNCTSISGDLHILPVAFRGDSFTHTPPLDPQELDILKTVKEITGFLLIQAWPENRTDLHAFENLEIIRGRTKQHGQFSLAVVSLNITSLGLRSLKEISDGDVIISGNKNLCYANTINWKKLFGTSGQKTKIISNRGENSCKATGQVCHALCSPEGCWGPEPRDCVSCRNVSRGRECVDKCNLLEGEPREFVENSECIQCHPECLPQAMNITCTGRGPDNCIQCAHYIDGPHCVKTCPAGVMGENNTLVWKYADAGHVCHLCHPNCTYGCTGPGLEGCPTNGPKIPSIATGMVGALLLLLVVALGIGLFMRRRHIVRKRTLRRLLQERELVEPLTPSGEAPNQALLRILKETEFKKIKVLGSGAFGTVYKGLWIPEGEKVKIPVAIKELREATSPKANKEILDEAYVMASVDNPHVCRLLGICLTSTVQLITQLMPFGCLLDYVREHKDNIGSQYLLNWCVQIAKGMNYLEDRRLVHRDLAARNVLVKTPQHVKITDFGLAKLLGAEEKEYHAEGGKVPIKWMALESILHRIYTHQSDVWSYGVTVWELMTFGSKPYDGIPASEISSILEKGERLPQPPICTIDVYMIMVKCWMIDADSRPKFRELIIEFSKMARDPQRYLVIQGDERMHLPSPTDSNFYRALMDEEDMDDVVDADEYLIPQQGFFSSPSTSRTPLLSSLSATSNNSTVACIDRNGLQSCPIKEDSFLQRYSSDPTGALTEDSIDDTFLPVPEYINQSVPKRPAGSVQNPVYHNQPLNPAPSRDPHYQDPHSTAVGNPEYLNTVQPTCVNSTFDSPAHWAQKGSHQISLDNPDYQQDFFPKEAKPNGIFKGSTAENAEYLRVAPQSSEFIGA
Assay: Detection of phosphorylated EGFR (pEGFR) in EGF-stimulated A431 cells (AlphaLISA)
Settings: A431 cells (10% FBS), 4 hours incubation, EGF 30 ng/mL for 10 minutes
pIC50: −log10 of the molar value.
Here the recorded pIC50 is given for each entry.

| molecule | value qualifier | pIC50 |
| --- | --- | --- |
| C=CC(=O)N1CCN(c2ccc3ncnc(Nc4ccc(Cc5ccn6ncnc6c5)c(C)c4)c3c2)[C@@H](C)C1 [Compound 104] | < | 5.00 |
| C=CC(=O)N1CCN(c2ccc3ncnc(Nc4ccc(CN5CCn6ncnc6C5)c(C)c4)c3n2)CC1 [Compound 34] | < | 5.00 |
| C=CC(=O)N1CCN(c2cc3c(Nc4ccc(Oc5ccc(C(=O)NCC(C)(C)C)cc5)c(C)c4)ncnc3cn2)CC1 [Compound 39] | = | 5.47 |
| C=CC(=O)N1CCN(c2ccc3ncnc(Nc4ccc(Oc5ccn6ncnc6c5)c(C)c4)c3n2)CC1(C)C [Compound 108] | = | 6.16 |
| Cc1cc(Nc2ncnc3cnc(N4CCN(C(=O)/C=C/CN(C)C)[C@H](C)C4)nc23)ccc1Cc1ccn2ncnc2c1 [Compound 122] | < | 5.00 |
| C=CC(=O)N1CCN(c2cc3c(Nc4ccc(OC5CCN(C(=O)CC(C)(C)C)CC5)c(C)c4)ncnc3cn2)CC1 [Compound 3] | = | 5.77 |
| C=CC(=O)N1CCN(c2ncc3ncnc(Nc4ccc(Oc5ccn6ncnc6c5)c(C)c4)c3n2)CC1 [Compound 45] | = | 6.18 |
| C=CC(=O)N1CCN(c2ccc3ncnc(Nc4ccc(Oc5ccc6c(c5)ncn6C)c(C)c4)c3c2)CC1 [Compound 88] | = | 6.14 |
| C=CC(=O)N1CCN(c2ccc3ncnc(Nc4ccc(Cc5ccc6c(c5)ncn6C)c(C)c4)c3c2)C[C@H]1C [Compound 54] | = | 5.62 |
| Cc1cc(Nc2ncnc3ccc(N4CCN(C(=O)/C=C/CN(C)C)[C@H](C)C4)nc23)ccc1Cc1ccc2c(c1)ncn2C [Compound 121] | = | 5.17 |
| C=CC(=O)N1CCN(c2ccc3ncnc(Nc4ccc(Oc5ccn6ncnc6c5)c(C)c4)c3c2)[C@@H](C)C1 [Compound 90] | = | 5.49 |
| C=CC(=O)N1CCC2(C1)CN(c1ccc3ncnc(Nc4ccc(Oc5ccn6ncnc6c5)c(C)c4)c3n1)C2 [Compound 21] | = | 5.03 |
| C=CC(=O)N1CCN(c2ccc3ncnc(Nc4ccc(Cc5ccn6ncnc6c5)c(C)c4)c3c2)C[C@H]1C [Compound 112] | < | 5.00 |
| C=CC(=O)N1CCN(c2ccc3ncnc(Nc4ccc(Cc5ccn6ncnc6c5)c(C)c4)c3c2F)C(C)C1 (stereo not shown) [Compound 79] | < | 5.00 |
| C=CC(=O)N1CCCN(c2ccc3ncnc(Nc4ccc(Oc5ccn6ncnc6c5)c(C)c4)c3n2)CC1 [Compound 16] | = | 5.10 |
| C=CC(=O)N1CCN(c2cc3c(Nc4ccc(OC5CCN(C(=O)C6CCCC6)CC5)c(C)c4)ncnc3cn2)CC1 [Compound 2] | = | 5.57 |
| C=CC(=O)N1CC[C@@H](Oc2ccc3ncnc(Nc4ccc(Oc5ccn6ncnc6c5)c(C)c4)c3c2)C1 [Compound 36] | < | 5.00 |
| C=CC(=O)N1CCN(c2ccc3ncnc(Nc4ccc(Oc5ccn6ncnc6c5)c(C)c4)c3n2)[C@@H](C)C1 [Compound 12] | = | 5.93 |
| C=CC(=O)N1CCN(c2ccc3ncnc(Nc4ccc(Cc5ccc6c(c5)ncn6C)c(C)c4)c3c2)[C@@H](C)C1 [Compound 125] | < | 5.00 |
| CC#CC(=O)N1CCN(c2ccc3ncnc(Nc4ccc(Oc5ccc6c(c5)ncn6C)c(C)c4)c3n2)C[C@H]1C [Compound 65] | = | 5.55 |
| C=CC(=O)N1CCN(c2cc3c(Nc4ccc(CN5CCn6ncnc6C5)c(C)c4)ncnc3cn2)CC1 [Compound 99] | < | 5.00 |
| C=CC(=O)N1CCN(c2ccc3ncnc(Nc4ccc(Cc5ccn6ncnc6c5)c(C)c4)c3n2)C[C@H]1C [Compound 51] | = | 5.78 |
| C=CC(=O)N1CCN(c2ncc3ncnc(Nc4ccc(Cc5ccn6ncnc6c5)c(C)c4)c3n2)[C@@H](C)C1 [Compound 113] | < | 5.00 |
| C=CC(=O)N1CCN(c2cc3c(Nc4ccc(Oc5ccc6c(c5)ncn6C)c(C)c4)ncnc3cn2)[C@@H](C)C1 [Compound 107] | = | 5.54 |
| Cc1cc(Nc2ncnc3ccc(N4CCN(C(=O)/C=C/CN(C)C)C[C@@H]4C)nc23)ccc1Cc1ccc2c(c1)ncn2C [Compound 126] | < | 5.00 |
| C=CC(=O)N1[C@H](C)CN(c2ccc3ncnc(Nc4ccc(Oc5ccn6ncnc6c5)c(C)c4)c3n2)C[C@H]1C [Compound 61] | < | 5.00 |
| C=CC(=O)N1CC[C@@H](Nc2ccc3ncnc(Nc4ccc(Oc5ccn6ncnc6c5)c(C)c4)c3n2)C1 [Compound 44] | = | 6.57 |
| C=CC(=O)N1CCN(c2cc3c(Nc4ccc(Oc5ccn6ncnc6c5)c(C)c4)ncnc3cn2)CC1 [Compound 109] | = | 6.08 |
